Read-out: TIMP metallopeptidase inhibitor 2 (TIMP2), TIMP2 (gene 7077)
method_description: BSK_KF3CT_TIMP2: BioMAP Diversity Plus: KF3CT Assay for TIMP metallopeptidase inhibitor 2 (TIMP2) Biomarker Activity (AID 2283071)
cond: primary human keratinocytes with fibroblasts; actives raise or lower the signal
Activity calls are given as the source filed them. Rule for the calls: active = hit-call score of the fitted dose curve at least 0.9, where 1 is the maximum; inactive = score below 0.9.
Labels: 1.0 for active, 0.0 for inactive

compound=CNC(=O)Oc1ccccc1OC(C)C label_class=0.0
compound="O=S1OCC2C(CO1)C1(Cl)C(Cl)=C(Cl)C2(Cl)C1(Cl)Cl (stereo not drawn)" label_class=1.0
compound="CCC(C)(NC(=O)c1cc(Cl)c(C)c(Cl)c1)C(=O)CCl (stereo not drawn)" label_class=1.0
compound=O=C(O)CCCOc1ccc(Cl)cc1Cl label_class=0.0
compound=Cc1cc(C)nc(NC(=O)NS(=O)(=O)c2ccccc2C(=O)OC2COC2)n1 label_class=0.0
compound=COC(=O)c1ccccc1CS(=O)(=O)NC(=O)Nc1nc(OC)cc(OC)n1 label_class=0.0
compound=COC(=O)c1ccccc1S(=O)(=O)NC(=O)N(C)c1nc(C)nc(OC)n1 label_class=0.0
compound=O=[N+]([O-])c1c(Cl)c(Cl)c(Cl)c(Cl)c1Cl label_class=1.0
compound="CC1(c2ccc(Oc3ccccc3)cc2)OC(=O)N(Nc2ccccc2)C1=O (stereo not drawn)" label_class=0.0
compound=COP(=S)(OC)Oc1ccc(SC)c(C)c1 label_class=0.0
compound="CC[C@H](C)[C@H]1O[C@]2(C=C[C@@H]1C)C[C@@H]1C[C@@H](C/C=C(\\C)[C@@H](O[C@H]3C[C@H](OC)[C@@H](O[C@H]4C[C@H](OC)[C@@H](O)[C@H](C)O4)[C@H](C)O3)[C@@H](C)/C=C/C=C3\\CO[C@@H]4[C@H](O)C(C)=C[C@@H](C(=O)O1)[C@]34O)O2 (tested in a mixture with another compound)" label_class=1.0
compound=O=C(O)C(F)(F)C(F)(F)C(F)(F)C(F)(F)C(F)(F)C(F)(F)C(F)(F)F label_class=0.0
compound=CNC(=O)CSP(=S)(OC)OC label_class=0.0
compound=O=[N+]([O-])/N=C1\NCCN1Cc1ccc(Cl)nc1 label_class=0.0
compound=C[C@H]1[C@H](c2ccc(Cl)cc2)SC(=O)N1C(=O)NC1CCCCC1 label_class=0.0
compound=Clc1ccccc1-c1nnc(-c2ccccc2Cl)nn1 label_class=0.0
compound="CCC(C)Nc1c([N+](=O)[O-])cc(C(C)(C)C)cc1[N+](=O)[O-] (stereo not drawn)" label_class=0.0
compound=CN1CSC(=S)N(C)C1 label_class=0.0
